Assay: Metabolic stability in mouse liver microsomes assessed as half life
Format: ADME, Microsome
Would you kindly list half-life for each of these compounds?
Give bare numbers, in h.

Compound	half-life, h
Cc1nonc1C(=O)NC1CCCc2c1cnn2-c1ccc(C(C)(C)C)cc1 (configuration not stated)	0.45

Consider now this further compound.
Problem: Tell me its half-life given Cc1nonc1C(=O)NC1CCCc2c1cnn2-c1ccc(OC(F)(F)F)cc1 (configuration not stated) as the entry.
Result: 1.7

----------
Would you kindly list MIC for each of these molecules?
Test system: Mycobacterium tuberculosis
Test: Antimycobacterial activity against Mycobacterium tuberculosis H37Rv after 16 to 24 hrs by microplate alamar blue assay
Format: functional
One number for each entry, in µM.

Worked set:
Molecule	Target Of Assay	MIC (µM)
CC(C)(C)c1ccc(-n2ncc3c2CCCC3NC(=O)c2ccno2)cc1 (stereo not given)	Mycobacterium tuberculosis	124
CC(C)(C)c1ccc(-n2ncc3c2CCCC3NC(=O)c2ccc3c(c2)no[n+]3[O-])cc1 (stereo not given)	Mycobacterium tuberculosis	1
Cc1nonc1C(=O)NC1CCCc2c1cnn2-c1ccc(OC(F)(F)F)cc1 (stereo not given)	Mycobacterium tuberculosis	1.9
CSCC[C@H](N)C(=O)NC1CCCc2c1cnn2-c1ccc(C(C)(C)C)cc1 (stereo not given in full)	Mycobacterium tuberculosis	4.8
CC(C)(C)c1ccc(-n2ncc3c2CCCC3NC(=O)c2cnccn2)cc1 (stereo not given)	Mycobacterium tuberculosis	57.7
Cc1nonc1C(=O)NC1CCCc2c1nnn2-c1ccc(C(C)(C)C)cc1 (stereo not given)	Mycobacterium tuberculosis	7.7

Consider now this further molecule.
Problem: Tell me its MIC given Cc1nonc1C(=O)NC1CCCc2c1cnn2-c1ccc(F)cc1 (stereo not given) as the entry.
Result: 30.7
